# Tested on: MCF7 breast
# Assay Info: NCI tumour cell line growth inhibition, 48 h
Assay Endpoint: TGI

Consider the molecule `C[C@H]1CC[C@@H]2[C@@H](C)[C@H]3[C@H](C[C@H]4[C@@H]5CC=C6C[C@@H](O)CC[C@]6(C)[C@H]5CC[C@]34C)N2C1` . State its measured TGI. > 100 µM

Consider the molecule `Cn1cccc1-c1cc(-c2ccccc2)nc(N)c1C#N` . State its measured TGI. > 100 µM

Consider the molecule `Cc1cc(S(=O)(=O)Nc2n[nH]c(Nc3ccccc3)n2)c(SSc2cc(Cl)c(C)cc2S(=O)(=O)Nc2n[nH]c(Nc3ccccc3)n2)cc1Cl` . State its measured TGI. > 10 µM

Consider the molecule `Cc1ccc(C)c2c1n1c(=O)n(C)c(=O)n21` . State its measured TGI. > 100 µM

Consider the molecule `CCOP(=O)(Cc1nc(C#N)c(N)o1)OCC` . State its measured TGI. > 100 µM

Consider the molecule ClC1=C(Cl)C2OC3C=CCC3OC2C(Cl)=C1Cl (centres undefined) . State its measured TGI. > 100 µM

Consider the molecule `c1ccc(-c2cc3n4c(-c5ccccc5)nn(-c5ccccc5)c4cnc-3n2)cc1` . State its measured TGI. > 50 µM

Consider the molecule `CC(=O)c1c(O)cc(O)c(-c2c(C)cc(O)c3c2C(=O)c2cccc(O)c2C3=O)c1O` . State its measured TGI. 29.8 µM

Consider the molecule `CCc1n[nH]c(=O)[nH]1` . State its measured TGI. > 100 µM

Consider the molecule `O=C1Nc2ccccc2SC1=C(C(=O)c1ccccc1)C(=O)c1ccccc1` . State its measured TGI. > 100 µM

Consider the molecule `O=NNc1c[nH]c(=O)[nH]c1=O` . State its measured TGI. > 100 µM

Consider the molecule `CC(C)OP(=O)(OC(C)C)/C(C#N)=C/c1c[nH]c2ccccc12` . State its measured TGI. > 100 µM

Consider the molecule `Cc1ccc(C(=O)N/N=C(\N=Nc2ccccc2C(=O)O)c2ccc(N(C)C)cc2)cc1` . State its measured TGI. > 100 µM

Consider the molecule `O=C(CN1CCN(c2ccccn2)CC1)N1CCCn2c1nc1ccccc1c2=O` . State its measured TGI. > 100 µM

Consider the molecule `Cc1nc2sc(C(=O)Nc3ccccc3)c(N)c2cc1C(=O)c1ccccc1` . State its measured TGI. > 50 µM

Consider the molecule `CCOC(=O)N(O)c1ccc(/C=C/c2ccccc2)cc1` . State its measured TGI. 14.6 µM

Consider the molecule CC1/C(=N/O)CC(c2ccccc2)N(N=O)C1c1ccccc1 (centres undefined) . State its measured TGI. > 100 µM

Consider the molecule CC1CN=C(c2ccc(CN3CCC(CCCC4CCN(Cc5ccc(C6=NCC(C)N6)cc5)CC4)CC3)cc2)N1 (centres undefined) . State its measured TGI. 50.3 µM

Consider the molecule `N#Cc1cc2c(cc1Cl)SC(=Nc1ccccc1)N(S(=O)(=O)c1ccc(Br)s1)S2(=O)=O` . State its measured TGI. 39.5 µM

Values compiled from PubChem BioAssay (NCI).
